ASSAY_REMARKS: Stability to human liver microsomes
Format: in vitro ADME
PARTICULARS: pH 7.4, 37 °C, 0.5 mg/mL protein, NADPH regenerating system, 60 min
remaining at 1 h, 1 µM values, listed per item
Your answer should be a plain number; it is taken to be in %.

Request: Specify measured remaining at 1 h, 1 µM for O=[N+]([O-])c1cn2c(n1)OC[C@@H](OCc1ccc(C#Cc3ccc(C(F)(F)F)nc3)cn1)C2 [compound 25] .
Response: 88

Request: Note remaining at 1 h, 1 µM for the compound shown: O=[N+]([O-])c1cn2c(n1)OC[C@@H](OCc1ccn(-c3ccc(OC(F)(F)F)cc3)n1)C2 [compound 10]
Response: 87

Request: Determine from records and report remaining at 1 h, 1 µM for O=[N+]([O-])c1cn2c(n1)OC[C@@H](OCc1ccc(/C=C/c3ccc(OC(F)(F)F)cc3)cc1)C2 [compound 31]
Response: 99

Request: Answer with the recorded remaining at 1 h, 1 µM of O=[N+]([O-])c1cn2c(n1)OC[C@@H](OCc1ccc(Cc3ccc(OC(F)(F)F)cc3)cc1)C2 [compound 17] only.
Response: 85
